MEASURED_TARGET: human ΔF508-CFTR (Homo sapiens, UniProt P13569, DEL508-508)
Construct: expressed in transfected cells
Sequence (P13569 with tags, fused parts or gaps DEL508-508): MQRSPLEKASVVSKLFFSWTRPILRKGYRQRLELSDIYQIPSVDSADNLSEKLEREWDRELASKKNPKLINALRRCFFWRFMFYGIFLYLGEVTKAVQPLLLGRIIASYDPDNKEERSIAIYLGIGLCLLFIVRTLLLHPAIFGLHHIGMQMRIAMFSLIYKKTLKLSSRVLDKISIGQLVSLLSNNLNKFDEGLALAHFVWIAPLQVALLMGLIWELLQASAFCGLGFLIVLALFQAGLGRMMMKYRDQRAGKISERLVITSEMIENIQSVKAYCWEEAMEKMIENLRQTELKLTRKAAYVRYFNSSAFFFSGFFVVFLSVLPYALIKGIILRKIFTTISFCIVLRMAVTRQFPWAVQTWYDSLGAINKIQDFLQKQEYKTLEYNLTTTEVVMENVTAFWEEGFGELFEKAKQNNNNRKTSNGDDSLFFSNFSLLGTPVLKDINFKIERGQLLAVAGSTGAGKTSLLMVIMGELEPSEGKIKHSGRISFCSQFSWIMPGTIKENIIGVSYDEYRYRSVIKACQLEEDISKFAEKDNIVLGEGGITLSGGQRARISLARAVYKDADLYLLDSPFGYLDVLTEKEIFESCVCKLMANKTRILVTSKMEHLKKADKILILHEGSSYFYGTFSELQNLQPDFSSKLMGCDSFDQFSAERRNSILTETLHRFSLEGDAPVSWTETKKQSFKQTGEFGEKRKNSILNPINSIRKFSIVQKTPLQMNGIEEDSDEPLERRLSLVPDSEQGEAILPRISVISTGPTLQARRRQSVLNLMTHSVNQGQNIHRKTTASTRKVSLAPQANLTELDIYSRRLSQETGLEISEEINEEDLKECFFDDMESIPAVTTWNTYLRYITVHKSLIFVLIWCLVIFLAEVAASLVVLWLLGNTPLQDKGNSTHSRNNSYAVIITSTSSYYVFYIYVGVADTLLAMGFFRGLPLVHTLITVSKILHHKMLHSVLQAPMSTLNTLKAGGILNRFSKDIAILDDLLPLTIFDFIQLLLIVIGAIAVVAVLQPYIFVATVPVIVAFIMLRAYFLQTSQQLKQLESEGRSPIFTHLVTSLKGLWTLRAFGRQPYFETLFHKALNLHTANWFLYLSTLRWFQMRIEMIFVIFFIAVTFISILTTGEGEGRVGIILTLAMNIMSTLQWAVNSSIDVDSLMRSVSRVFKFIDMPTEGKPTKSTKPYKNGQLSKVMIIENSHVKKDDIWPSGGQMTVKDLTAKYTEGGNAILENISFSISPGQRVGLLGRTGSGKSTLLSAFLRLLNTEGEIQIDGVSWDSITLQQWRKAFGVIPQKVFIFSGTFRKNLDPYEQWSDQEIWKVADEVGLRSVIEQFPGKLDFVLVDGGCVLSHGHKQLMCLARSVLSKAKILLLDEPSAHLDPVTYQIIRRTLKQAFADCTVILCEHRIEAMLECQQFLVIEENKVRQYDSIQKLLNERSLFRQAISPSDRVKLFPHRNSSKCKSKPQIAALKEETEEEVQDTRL
ASSAY_EXPLANATION: CFTR-YFP High Throughput Assay (HTS YFP flux assay, corrector / potentiator protocols)
Format: cell-based
STATED_CONDITIONS: FRT cells stably expressing human ΔF508-CFTR and YFP-H148Q/I152L; normalized to positive control; read-out: Emax (% Efficacy, EMax normalized to the positive control)
ENDPOINT_LABEL: Emax

Answered examples (3):
INSERT INTO results (compound, result) VALUES
  ('O=S(=O)(c1ccccc1)c1ccc2nnc(NCC(O)C3CCCCC3)n2c1 (stereo not shown) [Example 66]', '> 80%'),
  ('O=C(CNc1nnc2ccc(S(=O)(=O)c3ccccc3)cn12)C1CCCCC1 [Example 79]', '> 80%'),
  ('C[C@@H](Nc1nnc2ccc(S(=O)(=O)c3ccc(Cl)cc3)cn12)c1ccccc1 [Example 72]', '> 80%');

Field: next compound
If you can, please state the reported Emax value of CCN(CC)S(=O)(=O)c1ccc2nnc(N[C@@H]3C[C@H]4CC[C@@H]3C4)n2c1 [Example 33] .
> 80%

###

MEASURED_TARGET: human ΔF508-CFTR (Homo sapiens, UniProt P13569, DEL508-508)
Construct: expressed in transfected cells
ASSAY_EXPLANATION: CFTR-YFP High Throughput Assay (HTS YFP flux assay, corrector / potentiator protocols)
Type: cell-based
STATED_CONDITIONS: FRT cells stably expressing human ΔF508-CFTR and YFP-H148Q/I152L; normalized to positive control; read-out: Emax (% Efficacy, EMax normalized to the positive control)
ENDPOINT_LABEL: Emax

Answered examples (5):
INSERT INTO measurements (compound, result) VALUES
  ('O=S(=O)(c1ccccc1)c1ccc2nnc(NCC(O)C3CCCCCC3)n2c1 (stereo not drawn)', '> 80%'),
  ('CCN(c1cccnc1)S(=O)(=O)c1ccc2nnc(N[C@H](C)c3ccccc3)n2c1', '40 to 80%'),
  ('O=S(=O)(c1ccccc1)c1ccc2nc(NCC(O)C3CCCCC3)nn2c1 (stereo not drawn)', '> 80%'),
  ('c1ccc(-c2ccc3nc(Nc4ccc(-c5ccccn5)cc4)nn3c2)cc1', '40 to 80%'),
  ('CC(C)(C)C(=O)OC(CNc1nnc2ccc(S(=O)(=O)c3ccccc3)cn12)C1CCCCC1 (stereo not drawn)', '> 80%');

If you can, please state the reported Emax value of "CCN(CC)S(=O)(=O)c1ccc2nnc(NCc3ccc(F)cc3)n2c1" .
> 80%

If you can, please state the reported Emax value of CCN(CC)S(=O)(=O)c1ccc2nnc(NC3CCCc4ccccc43)n2c1 (stereo not drawn) .
> 80%

If you can, please state the reported Emax value of CCN(CC)S(=O)(=O)c1ccc2nnc(NC(C)CC(C)C)n2c1 (stereo not drawn) .
> 80%

If you can, please state the reported Emax value of "O=C(c1ccc(CNc2nc3ccc(S(=O)(=O)c4ccccc4)cn3n2)cc1)N1CCC1" .
40 to 80%

If you can, please state the reported Emax value of "CCN(CC)S(=O)(=O)c1ccc2nnc(NCc3ccccc3)n2c1" .
> 80%

If you can, please state the reported Emax value of "O=S(=O)(c1ccccc1)c1ccc2nc(NCc3cccc(C(F)(F)F)c3)nn2c1" .
> 80%

If you can, please state the reported Emax value of "CCN(CC)S(=O)(=O)c1ccc2nnc(NCC(C)C)n2c1" .
> 80%

If you can, please state the reported Emax value of "CCN(CC)S(=O)(=O)c1ccc2nnc(N[C@@H](C)c3ccc(C)cc3)n2c1" .
> 80%

If you can, please state the reported Emax value of "CCN(CC)S(=O)(=O)c1ccc2nnc(N[C@@H](C)c3ccccc3)n2c1" .
> 80%

If you can, please state the reported Emax value of "O=S(=O)(c1ccccc1)c1ccc2nnc(NC[C@H](O)c3ccccc3)n2c1" .
> 80%
